What OD 490/630 nm was measured for each of the following?
- Target Or System: T1, Ala mutant of TA0096, SEQ ID NO: 29
- T1 peptide: EEAMDDQWMQDEMEIGY
- Experiment Summary: ELISA, coated peptide
# respond with the number and nothing more

Task: Consider the binder shown here: G9 (antibody, V domains shown, Chicken variable regions in a mouse chimeric antibody (IgG1); also called anti-PAD4 antibody G9) VH: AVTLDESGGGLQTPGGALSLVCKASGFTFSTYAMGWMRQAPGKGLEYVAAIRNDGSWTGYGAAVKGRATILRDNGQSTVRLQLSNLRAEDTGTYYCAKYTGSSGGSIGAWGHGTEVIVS VL: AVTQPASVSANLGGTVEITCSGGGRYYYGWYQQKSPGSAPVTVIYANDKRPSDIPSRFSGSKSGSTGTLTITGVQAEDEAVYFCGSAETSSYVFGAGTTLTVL What is its recorded OD 490/630 nm?
Output: 1.94

Task: How about H7 (antibody, V domains shown, Chicken variable regions in a mouse chimeric antibody (IgG1); also called anti-PAD4 antibody H7) VH: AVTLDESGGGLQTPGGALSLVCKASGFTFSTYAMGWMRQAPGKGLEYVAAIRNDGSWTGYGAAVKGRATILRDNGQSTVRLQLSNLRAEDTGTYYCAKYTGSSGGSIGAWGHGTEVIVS VL: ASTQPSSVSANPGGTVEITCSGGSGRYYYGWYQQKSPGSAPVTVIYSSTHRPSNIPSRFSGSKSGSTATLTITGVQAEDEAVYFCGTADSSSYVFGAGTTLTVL ?
Output: 1.9

Task: How about G8 (antibody, V domains shown, Chicken variable regions in a mouse chimeric antibody (IgG1); also called anti-PAD4 antibody G8) VH: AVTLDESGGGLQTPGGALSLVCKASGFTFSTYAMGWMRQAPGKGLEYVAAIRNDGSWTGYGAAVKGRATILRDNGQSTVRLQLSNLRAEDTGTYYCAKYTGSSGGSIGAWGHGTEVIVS VL: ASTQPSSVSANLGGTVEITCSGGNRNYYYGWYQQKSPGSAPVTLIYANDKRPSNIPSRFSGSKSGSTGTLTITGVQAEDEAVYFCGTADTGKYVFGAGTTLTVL ?
Output: 1.91
